Data origin: paper PMC9506414

Each entry below lists one item and its recorded remaining at 30 min, 1 μM value.
- EXPERIMENT_NOTES: In vitro liver microsomal stability
- Assay type: in vitro ADME
- EXPERIMENTAL_CONTEXT: mouse, liver microsomes, pH 7.4, 30 m at 37 °C with NADPH regeneration system
Unit % implied. Number only.

I'd like to know its remaining at 30 min, 1 μM. The compound in question is CCn1cnc2c(NCc3ccc(-c4ccnc(C)c4)nc3)nc(-c3ccc(N)nc3)nc21 [Compound 30a]
35.3

I'd like to know its remaining at 30 min, 1 μM. The compound in question is CCn1cnc2c(NCc3ccc(-c4ccccn4)nc3)nc(-c3ccc(N)nc3)nc21 [Compound 30d]
49.9

Next:
I'd like to know its remaining at 30 min, 1 μM. The compound in question is CCn1cnc2c(NCc3ccc(-c4ccnc(C)c4)nc3)nc(-c3cnc(N)nc3)nc21 [Compound 30b]
45
